experiment: In vivo pharmacokinetics after intravenous bolus; set-up: species or system Wistar rats; conditions: male, Wistar, rat, plasma, 4.7 mg/kg
Endpoint: AUC(0-inf) (ng·h/mL)
Give your result in ng·h/mL as a bare value.

Prompt line: Supply AUC(0-inf) value. Item: COc1ccc(Nc2c3ccccc3nc3occ(Cl)c23)cc1
Response line: 1160

----------
assay: In vivo pharmacokinetics after intravenous bolus; design: species or system Wistar rats; details: male, Wistar, rat, plasma, 4.7 mg/kg
Endpoint: MRT (h)
Give your result in h as a bare value.

Prompt line: Supply MRT value. Item: COc1ccc(Nc2c3ccccc3nc3occ(Cl)c23)cc1 [PK-L4]
Response line: 1.02

----------
test: In vivo pharmacokinetics after intravenous bolus; design: species or system Wistar rats; conditions: male, Wistar, rat, plasma, 4.7 mg/kg, half-life alpha, after intravenous bolus, rat plasma
Endpoint: half-life (min)
Give your result in min as a bare value.

Prompt line: Supply half-life value. Item: COc1ccc(Nc2c3ccccc3nc3occ(Cl)c23)cc1 [PK-L4]
Response line: 4.68

----------
experiment: In vivo pharmacokinetics after intravenous bolus; set-up: species or system Wistar rats; conditions: male, Wistar, rat, plasma, 4.7 mg/kg
Endpoint: clearance (mL/min/kg)
Give your result in mL/min/kg as a bare value.

Prompt line: Supply clearance value. Item: COc1ccc(Nc2c3ccccc3nc3occ(Cl)c23)cc1
Response line: 67.9

----------
assay: In vivo pharmacokinetics after intravenous bolus; parameters: species or system Wistar rats; conditions: male, Wistar, rat, plasma, 4.7 mg/kg
Endpoint: Vd
Answer by giving the amount and then stating its unit.

Prompt line: Supply Vd value. Item: COc1ccc(Nc2c3ccccc3nc3occ(Cl)c23)cc1 [PK-L4]
Response line: 4.12 L/kg
